# System: Staphylococcus aureus KCTC 1621
Readout Type: MIC (µM)
Answers are plain numbers, in µM.

CC[C@H](C)[C@H](NC(=O)[C@H](CCCN=C(N)N)NC(=O)[C@H](CCCCN)NC(=O)[C@H](CCCN=C(N)N)NC(=O)[C@@H](NC(=O)[C@H](CCCN=C(N)N)NC(=O)[C@@H](N)CCCCN)[C@@H](C)CC)C(=O)N[C@@H](CCCCN)C(=O)N[C@@H](CCCCN)C(=O)N[C@@H](Cc1c[nH]c2ccccc12)C(=O)N[C@@H](CC(C)C)C(=O)N[C@@H](CCCN=C(N)N)C(N)=O [KRIRKRIKKWLR]: 4
NCCCC[C@H](NC(=O)[C@H](CCCCN)NC(=O)[C@H](Cc1ccccc1)NC(=O)[C@@H]1CCCN1C(=O)[C@H](Cc1c[nH]c2ccccc12)NC(=O)[C@H](Cc1c[nH]c2ccccc12)NC(=O)[C@H](Cc1c[nH]c2ccccc12)NC(=O)[C@@H]1CCCN1C(=O)[C@H](Cc1ccccc1)NC(=O)[C@H](CCCCN)NC(=O)[C@@H](N)CCCCN)C(=O)O [KKFPWWWPFKK]: 2.54

Please tell me: MIC of CC[C@H](C)[C@H](NC(=O)[C@H](CCCCN)NC(=O)[C@H](CCCCN)NC(=O)[C@H](Cc1ccccc1)NC(=O)[C@H](CC(C)C)NC(=O)[C@H](CCCCN)NC(=O)[C@H](Cc1c[nH]c2ccccc12)NC(=O)[C@@H](N)CCCCN)C(=O)N1CCC[C@H]1C(=O)N[C@@H](CC(C)C)C(=O)N[C@@H](Cc1cnc[nH]1)C(=O)N[C@@H](CC(C)C)C(=O)N[C@@H](C)C(=O)N[C@@H](CCCCN)C(=O)N[C@@H](CCCCN)C(=O)N[C@@H](Cc1ccccc1)C(N)=O [KWKLFKKIPLHLAKKF] , system Staphylococcus aureus KCTC 1621?
3.12

====

Consider molecules characterized by their MIC with Staphylococcus aureus ATCC 25923.
# output: number + unit

Here's what some known entries look like.
CC(C)[C@H](NC(=O)[C@H](Cc1ccc(O)cc1)NC(=O)[C@H](CO)NC(=O)[C@H](CCCCN)NC(=O)[C@@H](N)Cc1c[nH]c2ccccc12)C(=O)N[C@@H](CCCN=C(N)N)C(=O)N[C@@H](CCCN=C(N)N)C(=O)N[C@@H](Cc1c[nH]c2ccccc12)C(=O)N[C@@H](CCCN=C(N)N)C(=O)N[C@@H](CO)C(=O)N[C@@H](CCCN=C(N)N)C(N)=O: 32 µM
CC[C@H](C)[C@H](NC(=O)[C@H](C)NC(=O)CNC(=O)[C@H](CC(C)C)NC(=O)[C@@H](NC(=O)[C@H](CCCCN)NC(=O)[C@H](CCCCN)NC(=O)[C@@H](NC(=O)[C@@H](NC(=O)CNC(=O)[C@H](CC(C)C)NC(=O)[C@H](CC(C)C)NC(=O)[C@H](CCCCN)NC(=O)[C@@H](N)CC(C)C)[C@@H](C)CC)C(C)C)C(C)C)C(N)=O: 3 µM

// below: MIC requested for another molecule
Name the reported MIC value associated with the molecule "CSCC[C@H](NC(=O)[C@H](CCCN=C(N)N)NC(=O)[C@H](Cc1c[nH]c2ccccc12)NC(=O)[C@H](CCC(N)=O)NC(=O)[C@H](Cc1c[nH]c2ccccc12)NC(=O)[C@H](CCCN=C(N)N)NC(=O)[C@H](CCCN=C(N)N)NC(=O)[C@H](CS)NC(=O)[C@H](CCCCN)NC(=O)[C@@H](N)Cc1ccccc1)C(=O)N[C@@H](CCCCN)C(=O)O"
30.8 µM

====

I'd be grateful if you could share measured MIC for these entries.
# System: Staphylococcus aureus ATCC 25923
Numbers only, in µM.

CC[C@H](C)[C@H](NC(=O)[C@@H]1CCCN1C(=O)[C@H](CC(C)C)NC(=O)[C@@H](N)Cc1ccccc1)C(=O)N[C@H](C(=O)NCC(=O)N[C@@H](CCCCN)C(=O)N[C@@H](CC(C)C)C(=O)N[C@@H](CC(C)C)C(=O)N[C@@H](CO)C(=O)NCC(=O)N[C@@H](CC(C)C)C(=O)N[C@@H](Cc1ccccc1)C(N)=O)C(C)C [FLPIVGKLLSGLF]: 150

// below: MIC requested for another compound
Name the reported MIC value associated with the compound CC[C@H](C)[C@H](NC(=O)[C@H](CCCN=C(N)N)NC(=O)[C@H](CO)NC(=O)[C@H](CC(C)C)NC(=O)[C@@H](N)CCCN=C(N)N)C(=O)N[C@H](C(=O)N[C@H](C(=O)N[C@H](C(=O)N[C@@H](CCCN=C(N)N)C(=O)N[C@H](C(=O)N[C@@H](CO)C(=O)N[C@@H](CCCN=C(N)N)C(N)=O)C(C)C)[C@@H](C)CC)C(C)C)C(C)C [RLSRIVVIRVSR]
2.75

====

Consider compounds characterized by their MIC with Salmonella enterica subsp. enterica serovar Typhimurium LT2.

CC(C)C[C@H](NC(=O)[C@H](CC(C)C)NC(=O)[C@H](CC(N)=O)NC(=O)[C@H](CCC(=O)O)NC(=O)[C@H](CC(N)=O)NC(=O)[C@H](CC(C)C)NC(=O)[C@@H](N)C(C)C)C(=O)O: ≥ 1250 µM
CC[C@H](C)[C@H](N)C(=O)N[C@@H](Cc1cnc[nH]1)C(=O)N[C@@H](Cc1cnc[nH]1)C(=O)N[C@@H](CCC(N)=O)C(=O)NCC(=O)N[C@@H](CC(C)C)C(=O)N1CCC[C@H]1C(=O)N[C@@H](CCC(N)=O)C(=O)N[C@@H](CCC(=O)O)C(=O)O: ≥ 2500 µM
CC(C)C[C@H](NC(=O)[C@H](C)NC(=O)[C@H](CC(N)=O)NC(=O)[C@H](CCC(=O)O)NC(=O)[C@H](CC(N)=O)NC(=O)[C@H](CC(C)C)NC(=O)[C@@H](N)C(C)C)C(=O)N[C@@H](CCCN=C(N)N)C(=O)O: ≥ 2500 µM
CC(C)C[C@H](NC(=O)[C@H](CC(N)=O)NC(=O)[C@H](CCC(=O)O)NC(=O)[C@H](CC(N)=O)NC(=O)[C@H](CC(C)C)NC(=O)[C@@H](N)C(C)C)C(=O)N[C@@H](CCCN=C(N)N)C(=O)N[C@@H](CCCN=C(N)N)C(=O)O: ≥ 2500 µM

Batch request: MIC per item, same order as input.
1. CC(C)C[C@H](NC(=O)CNC(=O)[C@H](CCC(N)=O)NC(=O)[C@H](Cc1cnc[nH]1)NC(=O)[C@@H](N)CCCCN)C(=O)N1CCC[C@H]1C(=O)N[C@@H](CCC(N)=O)C(=O)N[C@@H](CCC(=O)O)C(=O)O
2. CC[C@H](C)[C@H](N)C(=O)N[C@@H](CCCN=C(N)N)C(=O)N[C@@H](CCCN=C(N)N)C(=O)N[C@@H](CCC(N)=O)C(=O)NCC(=O)N[C@@H](CC(C)C)C(=O)N1CCC[C@H]1C(=O)N[C@@H](CCC(=O)O)C(=O)O

1: ≥ 1250 µM; 2: ≥ 2500 µM

====

Consider compounds characterized by their MIC with Candida albicans ATCC 2002.

Here's what some known entries look like.
CC[C@H](C)[C@H](NC(=O)[C@H](CC(N)=O)NC(=O)[C@@H](NC(=O)[C@H](C)N)[C@@H](C)O)C(=O)N1CCC[C@H]1C(=O)N[C@@H](Cc1ccccc1)C(=O)N[C@@H](CCCCN)C(=O)N[C@H](C(=O)N[C@@H](Cc1cnc[nH]1)C(=O)N[C@@H](Cc1ccccc1)C(=O)N[C@@H](CCCN=C(N)N)C(=O)N[C@H]1CSSC[C@@H](C(=O)O)NC(=O)[C@H](Cc2ccccc2)NC(=O)[C@H](C)NC(=O)[C@H](C)NC(=O)[C@H](CCCCN)NC1=O)C(C)C: 24.1 µM
CC[C@H](C)[C@H](NC(=O)[C@@H](NC(=O)[C@@H](NC(=O)[C@@H]1CCCN1C(=O)[C@H](Cc1c[nH]c2ccccc12)NC(=O)[C@H](Cc1ccccc1)NC(=O)[C@H](CCCN=C(N)N)NC(=O)[C@H](CCCCN)NC(=O)[C@@H](NC(=O)[C@@H](N)CCCN=C(N)N)[C@@H](C)CC)C(C)C)C(C)C)C(=O)N[C@@H](CCCN=C(N)N)C(=O)O: ≥ 102 µM

// below: MIC requested for another compound
Name the reported MIC value associated with the compound "CC[C@H](C)[C@H](NC(=O)[C@H](C)NC(=O)[C@H](CCCN=C(N)N)NC(=O)[C@H](Cc1ccc(O)cc1)NC(=O)[C@H](CC(C)C)NC(=O)[C@H](CC(N)=O)NC(=O)[C@H](Cc1ccc(O)cc1)NC(=O)CNC(=O)[C@H](C)NC(=O)[C@@H](NC(=O)[C@@H](NC(=O)[C@@H](NC(=O)[C@H](CCCN=C(N)N)NC(=O)[C@@H](NC(=O)[C@@H](N)C(C)C)[C@@H](C)CC)[C@@H](C)O)C(C)C)C(C)C)C(=O)N[C@@H](CCCCN)C(=O)N[C@@H](CCCCN)C(=O)N[C@@H](CCCCN)C(=O)O"
≥ 35.8 µM
